Task for the reader: assign each of the following molecules its reported growth inhibition.
Test: NCI Yeast Anticancer Drug Screen. Data for the cln2 rad14 strain (AID 165);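 further: 0% = growth equal to vehicle treated cultures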
Conditions: S. cerevisiae cln2 rad14 strain, at 50.0 µM, active compounds read high
Compounds without any hit were thinned out: in the full panel of roughly 79,000, 15% have a hit. Where a SMILES comes first, the peptide text is derived from it. The star is where a group is joined. Cbz = O=C(OCc1ccccc1)*
Respond with the bare value in %.

What value of measured growth inhibition is listed for Cc1ccc(O)c(C2CC(C#N)CCN2C)c1 (stereo unspecified) ?
-6.35

Quick one: CCOC(=O)/C(C#N)=C/c1cccc(Cl)c1
13.3

Quick one: CCOC(=O)C(C)Oc1ccc(Cn2ccnn2)cc1 (stereo unspecified)
-4.05

Quick one: O=C(CC(=O)c1ccc(Cl)s1)C(=O)NC1C2CC3CC(C2)CC1C3 (stereo unspecified)
-26.6

Quick one: CCOC(=O)C(C)NC(=O)C(C)NC(=O)C(C)NC(=O)C(C)NC(=O)C(C)NC(=O)C(C)NC(=O)C(C)NC(=O)OCc1ccccc1 (stereo unspecified) (Cbz-AAAAAAA-OEt; configuration not given here)
16.6

Quick one: O=S1(=O)CS(=O)(=O)OCCO1
31.9

Quick one: O=[N+]([O-])c1ccc(N/N=C(/c2ccccc2)C2CCCC2)c([N+](=O)[O-])c1
7.9

Quick one: NC(=O)c1nc(C2OC(CO)C(O)C2O)cs1 (stereo unspecified)
-27.9

Quick one: NNC(=O)CSc1ncnc2nc[nH]c12
-3

Quick one: Cn1ncc(C(=O)O)c1[N+](=O)[O-]
-37.6

Quick one: C=CCc1c(O)c2ccccc2[nH]c1=O
12.7

Quick one: CCOC(=O)C1CCC/C1=N/Nc1ccc([N+](=O)[O-])cc1[N+](=O)[O-] (stereo unspecified)
-21.9

Quick one: N#Cc1ccccc1C#N
-13.9

Quick one: CCOC1CN=C(Nc2cccc3ccccc23)S1 (stereo unspecified)
-2.65

Quick one: Cc1cc(N(CCC#N)CCC#N)ccc1/C=C\C(=O)Nc1ccccc1
10.2

Quick one: COC1/C=C\OC2(C)Oc3c(C)c(O)c4c(O)c(c5[nH]cnc5c4c3C2=O)NC(=O)/C(C)=C\C=C\C(C)C(O)C(C)C(O)C(C)C(OC(C)=O)C1C (stereo unspecified)
28.2

Quick one: CC1(C)CCC[C@@]2(C)C1C[C@H](O)[C@@]1(C)O[C@@](C)([C@H](O)CO)CCC21 (stereo partly specified)
69.1

Quick one: COC(=O)C12OCC34C(CC5C(C)CC(=O)C(O)C5(C)C3C(O)C1O)OC(=O)C(OC(C)=O)C24 (stereo unspecified)
36

Quick one: CC(=O)C1CC(CCC2([N+](=O)[O-])CCC(C)(O)C(C(C)=O)C2)([N+](=O)[O-])CCC1(C)O (stereo unspecified)
2.6

Quick one: CCOc1ccc2ccccc2c1
-49.5

Quick one: Cn1c(=O)c2[nH]c(C(=O)O)nc2n(C)c1=O
9.35

Quick one: CCn1c(=O)c2c3ccc(O)cc3[nH]c2c2ccc(O)cc21
-14.6

Quick one: O=c1[nH]nc(-c2ccccc2)n1-c1ccncc1
-4.65

Quick one: C[N+]1(C)CCC(O)C(c2ccccc2)C1 (stereo unspecified)
-22.5

Quick one: CCOC(=O)C1(C)CCc2sc(N)c(C#N)c21 (stereo unspecified)
-10.8

Quick one: Cc1nn(C(=O)c2ccncc2)c2c1C(c1cccc([N+](=O)[O-])c1)SC(N)=N2 (stereo unspecified)
2.1

Quick one: Cc1cc(=O)[nH]c(NN2C(Cl)C(=O)C2c2ccc([N+](=O)[O-])cc2)n1 (stereo unspecified)
2.7

Quick one: OCC=C1CCCCCC1
-4.25

Quick one: Cc1ccc(N=C(N)NC#N)cc1
16.6

Quick one: O=c1[nH]c2cc(Cl)ccc2nc1/C=C(\O)c1cccc2ccccc12
17

Quick one: O=S(=O)(OI(O)CC(F)(F)F)C(F)(F)F
5.9

Quick one: COc1cc(OC)cc(C2OC(N)=C(O)C2=O)c1 (stereo unspecified)
14.9

Quick one: CCCCOC(=O)c1ccc(Cl)c(Cl)c1
-32.9

Quick one: OC1COC(O)(CN2CCOCC2)C(O)C1O (stereo unspecified)
4.75

Quick one: O=C(NNC(=O)C(Oc1ccccc1)c1ccccc1)C(Cl)Cl (stereo unspecified)
-2.45

Quick one: CCC(CC)=C(c1ccc(C)cc1)c1ccc(C)cc1
-52.8

Quick one: COC(=O)c1ccccc1NC(=O)c1cc(C(=O)O)c(C(=O)Nc2ccccc2C(=O)OC)cc1C(=O)O
4.35

Quick one: Cc1nc2scc(C)c2c(=S)[nH]1
-38.9

Quick one: OCCC1=CCC1
29.6

Quick one: COC(=O)c1ccc(C(=O)OC)cc1
12.2

Quick one: Fc1ccc(C(=C(c2ccc(F)cc2)c2ccc(F)cc2)c2ccc(F)cc2)cc1
9.55

Quick one: CC(=O)Oc1cccc2cc3cc(C)cc(OC(C)=O)c3c(OC(C)=O)c12
-2.95

Quick one: C/C(=N/NC(=O)c1ccncc1)C(F)(F)F
-6.85

Quick one: COc1cc2c(cc1C(C)c1ccc(OCc3ccccc3)cc1)OCO2 (stereo unspecified)
-13.1

Quick one: O=C(O)C(Nc1ccc(Cc2ccc(NC(C(=O)O)c3ccccc3)cc2)cc1)c1ccccc1 (stereo unspecified)
-4.5

Quick one: COC1=CC(=O)C(Cc2ccc3c(c2)OCO3)=CC1=O
-9.45

====

Task for the reader: assign each of the following molecules its reported growth inhibition.
Test: NCI Yeast Anticancer Drug Screen. Data for the bub3 strain (AID 167)
Details: S. cerevisiae bub3 mutant strain, at 50.0 µM, active compounds read high
This is part of a sample that, as a whole, favours compounds with a hit. Of some 79,000 tested, about 15% had one in any assay. Active and inactive are the calls of the source. Rule as the data show it: active = growth inhibition above about 70%; inactive = the rest.

What value of measured growth inhibition is listed for Cn1c(=O)c2c(ncn2CCSS(=O)(=O)O)n(C)c1=O ?
-12% (inactive)

Quick one: C=CCCCCCCCCC(=O)NCC1CCCCO1 (configuration not stated)
10.1% (inactive)

Quick one: CN1Cc2ccccc2-c2ccccc2C1
4.7% (inactive)

Quick one: O=C1N=C2C=CC=CN2CC1O (configuration not stated)
11.5% (inactive)

Quick one: CC1(C)C=CC=C(C(=O)O)C=C1
-13.7% (inactive)

Quick one: CC1=C(C(=O)NCc2ccccc2)C(c2ccc([N+](=O)[O-])cc2)C(C(=O)NCc2ccccc2)=C(C)N1
-4.8% (inactive)

Quick one: CC(=O)OC1CCC2(C)C(=CCC3C2CCC2(C)C3CC(Br)C2(O)C(C)=O)C1 (configuration not stated)
4.1% (inactive)

Quick one: CCC1CCC(OC(=O)Nc2cccc3ccccc23)CC1 (configuration not stated)
4.85% (inactive)

Quick one: S=C1SCN(c2ccc(Br)cc2)CN1c1ccc2[nH]c(=S)sc2c1
12.1% (inactive)

Quick one: Cc1ccccc1SC(c1ccccc1)(c1ccccc1)c1ccccc1
-6.1% (inactive)

Quick one: C=CCc1cc(OC)ccc1O
22.3% (inactive)

Quick one: O=C(O)c1c[nH]c2cc(OCc3ccccc3)ccc2c1=O
-21.1% (inactive)

====

Task for the reader: assign each of the following compounds its reported growth inhibition.
Assay: NCI Yeast Anticancer Drug Screen. Data for the cln2 rad14 strain (AID 165);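 further: 0% = growth equal to vehicle treated cultures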
Conditions: S. cerevisiae cln2 rad14 strain, at 50.0 µM, active compounds read high
About 79,000 compounds went through this panel and 15% of them were active in at least one assay; those are over-represented in the sample as a whole.
Respond with the bare value in %.

What value of measured growth inhibition is listed for Cc1nc(C(N)=S)sc1C(=O)CC(=O)C(=O)Nc1ccccc1[N+](=O)[O-] ?
7

Quick one: C(#Cc1ccccc1)SC1=C(c2ccccc2)S/C(=C(\SC#Cc2ccccc2)c2ccccc2)S1
10.9

Quick one: O=C(Nc1c[nH]c(=O)[nH]c1=O)Oc1ccccc1
-1

Quick one: COc1cccc2cc(C(=O)Nc3ccccc3)c(=N)oc12
9.3

Quick one: Cn1c2nc(-[n+]3ccc(N4CCOCC4)cc3)nc-2c([O-])n(C)c1=O
-44.9

Quick one: Cc1cc(Cc2cccc3ccccc23)nc2c1ccc1ccccc12
11

Quick one: Cc1cc(N/N=C/c2ccnc3ccccc23)c2cc3c(cc2n1)OCO3
27

Quick one: CCCCOC(=O)CNC(=O)c1ccc(C)c(OCc2ccccc2)c1[N+](=O)[O-]
-19.6

Quick one: CCOC(=O)C(=O)Nc1c(N(CC)CC)n2ccccc2nc1=O
6.2

Quick one: COc1ccc(NC(=O)c2cc3ccccc3cc2OC(=O)NC(C)(C)C)cc1
2.5

====

Test: NCI Yeast Anticancer Drug Screen. Data for the cln2 rad14 strain (AID 165);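 further: 0% = growth equal to vehicle treated cultures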
Conditions: S. cerevisiae cln2 rad14 strain, at 50.0 µM, active compounds read high
The panel holds about 79,000 compounds, 15% with a hit somewhere; the sample as a whole holds those more often.
propertyName: growth inhibition (%)
Respond with the bare value in %.

What value of measured growth inhibition is listed for CC1(C)OC(C)(C)c2c1nnc(-c1ccccc1[N+](=O)[O-])[n+]2[O-] ?
12.8

Quick one: COc1ccc(NC(=O)COc2cc(Cl)c(Cl)cc2Cl)cc1
11.9

Quick one: S=C(SNC1CCCCC1)SNC1CCCCC1
-13.4

Quick one: O=C1CSC(=S)N1c1ccccc1
-4.75

Quick one: Cc1ccc(C2CCC(C#N)=CN2C)cc1 (stereo not drawn)
-39.4

Quick one: CCCCCCCCCCCCCCCCCC(=O)NCCCNCCCNC(=O)CCCCCCCCCCCCCCCCC
7.55

Quick one: O=C(NCCNc1ccccc1)C12CC3CC(CC(C3)C1)C2
-2.4

Quick one: O=C(Cl)CN1C(=O)c2ccccc2C1=O
-14.3

Quick one: CCOC(=O)C(CCc1ccc([N+](=O)[O-])cc1)(CCc1ccc([N+](=O)[O-])cc1)C(=O)OCC
-29.1

Quick one: Cc1cnc2ccccc2c1
4.35

Quick one: C=C(C)C(=O)OC1C(C(C)CCCO)=C(CO)CC2OC(=O)C(=C)C21 (stereo not drawn)
-7.7

Quick one: O=C(NCCNCCNC(=O)C(F)(F)F)C(F)(F)F
12.8

Quick one: O=C(Cc1ccccc1)c1ccc(N2CCOCC2)cc1
13.2

Quick one: [Cl][Co][Cl].[NH-]CCC[NH-].[NH-]CCC[NH-]
10.2

Quick one: c1ccc(CCCCc2ccccn2)cc1
0.2

Quick one: CCOC(=O)/C=C/c1ccccn1
11.9

Quick one: CCOc1ccccc1NC(=S)NC(=O)CCc1ccccc1
-35

Quick one: FC(F)(F)c1nnc(-c2ccccc2)nn1
-36.6

Quick one: COc1ccc(-c2cc(-c3ccc(Cl)cc3)on2)cc1
-35.8

Quick one: O=C(CCCCCCCCC(=O)OCCCn1cc(C(=O)NC(=O)OCc2ccccc2)c(=O)[nH]c1=O)OCCCn1cc(C(=O)NC(=O)OCc2ccccc2)c(=O)[nH]c1=O
1.7

Quick one: CC(C)[C@@H]1CC[C@@H](C)C[C@H]1N
-35.5

Quick one: O=C(Cc1ccccc1)NN1C(=O)/C(=C\c2ccccc2)SC1=Nc1ccccc1
35.5

Quick one: N#C/C(=C/NC(=S)Nc1ccc(S(N)(=O)=O)cc1)C(N)=O
-10.8

Quick one: CC(Cc1ccccc1)Nc1ncnc2c1ncn2C1OC(CO)CC1O (stereo not drawn)
1.6

Quick one: COc1ccc(C(C#N)C(=O)CCC(=O)C(C#N)c2ccc(OC)c(OC)c2)cc1OC (stereo not drawn)
-15.3

Quick one: COC(=O)C(C)CN1CCCCC1 (stereo not drawn)
-6.45

Quick one: O=C(O)c1ccc(C(=O)c2ccccc2C(=O)O)cc1C(=O)O
43.3

Quick one: c1ccc(COC(c2ccccc2)(c2ccccc2)c2ccccc2)cc1
-8.55

Quick one: CC(=O)OCC(OC(C)=O)C(OC(C)=O)c1cnn(-c2ccccc2)n1 (stereo not drawn)
17.7

Quick one: COc1cc(-c2cccs2)sc1-c1cccs1
8.95

Quick one: CCN(CC)CCOCCN(CC)CC
-44.8

Quick one: Cc1c(O)cccc1C(=O)C[n+]1ccccc1
-24.9

Quick one: Cc1ccc(OS(=O)Nc2cccc(N)c2)cc1 (stereo not drawn)
-22.1

Quick one: O=c1cc(-c2cccc3ccccc23)[nH]c2ncccc12
13.9

Quick one: CCOC1C=CCCO1 (stereo not drawn)
-6.55

Quick one: CC(=O)Nc1ccc(C(C#N)C(C#N)c2ccccc2)cc1 (stereo not drawn)
-68.3

Quick one: O=c1c2cc([N+](=O)[O-])ccc2n2n1CCCC2
16.9

Quick one: COC(=O)C(C)(Cc1ccc2c(c1)nnn2C(C)=O)NC(C)=O (stereo not drawn)
-2.45

Quick one: CCN(CC)C1=CC(=O)OC1OC (stereo not drawn)
8.1

Quick one: N#CC1(c2ccc(Cl)cc2)CCC1
19.9

Quick one: O=C(O)CN(CC(=O)O)CC(=O)O
-11.8

Quick one: CCCC(C)(C)O
-21.3

Quick one: CC(=O)OCC1OC(n2c(Br)nc3c2c(=O)n(C)c(=O)n3C)C(OC(C)=O)C1OC(C)=O (stereo not drawn)
-7.95

Quick one: Cc1cc[c]([Sb]2([c]3ccc(C)cc3)([c]3ccc(C)cc3)[NH]c3cc(C(c4ccccc4)(c4ccccc4)c4ccccc4)cc(C(C)(C)C)c3[O]2)cc1
-23.6

Quick one: O=C(O)c1nn(-c2ccc(Cl)cc2)c2c1C(=O)c1ccccc1C2=O
14.1

Quick one: Cn1cnc([N+](=O)[O-])c1Sc1nc2ncccc2[nH]1
16.6

Quick one: COc1ccc(CCNC(=O)Cc2cc(OCc3ccccc3)c(OC)cc2[N+](=O)[O-])cc1OC
0.8

Quick one: NC(=O)c1nnn(-c2ccccc2)n1
-12.3
